Reference for the values: patent US20230303690A1

# IL-2, % of BMS, at 0.005080526 ug/mL per entry
TEST SYSTEM: T1, human LAG3 expressed on cells (human, UniProt P18627 23-525)
T1 sequence (looked up): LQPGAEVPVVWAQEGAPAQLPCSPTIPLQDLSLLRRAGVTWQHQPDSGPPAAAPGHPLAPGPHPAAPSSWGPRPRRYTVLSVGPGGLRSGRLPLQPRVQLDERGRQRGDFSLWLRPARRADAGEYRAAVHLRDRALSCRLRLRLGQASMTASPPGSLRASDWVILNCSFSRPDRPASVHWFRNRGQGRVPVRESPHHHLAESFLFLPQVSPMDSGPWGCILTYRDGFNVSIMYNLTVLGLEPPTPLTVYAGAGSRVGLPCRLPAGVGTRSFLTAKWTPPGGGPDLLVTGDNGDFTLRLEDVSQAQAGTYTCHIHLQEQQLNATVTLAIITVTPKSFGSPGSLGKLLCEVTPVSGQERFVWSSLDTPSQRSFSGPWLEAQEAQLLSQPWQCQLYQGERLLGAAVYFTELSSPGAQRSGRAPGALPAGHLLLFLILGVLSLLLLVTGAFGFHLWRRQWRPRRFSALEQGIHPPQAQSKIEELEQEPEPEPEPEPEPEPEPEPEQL
TEST SUMMARY: cell-based or functional assay
Number only, in %; omit the unit.

sdAb No. 24 (VHH, Fc of the tested form not described; also called sdAb 24; not shown: Fc part implied by anti-human Fc capture) VHH: QLQLVESGGGLVQPGGSLRLSCAASGFTLNEHAIGWFRQAPGKEREGVSCISSSDGSTYYHDSVKGRFTMSRDDAKNTVYLQMNSLKAEDTAIYYCAAALGRDCQGGQWKTSSWGQGTQVTVSS :: 10.7

Next binder, IL-2, % of BMS, at 0.005080526 ug/mL to be filled in.
Please report the measured IL-2, % of BMS, at 0.005080526 ug/mL for sdAb No. 21 (VHH, Fc of the tested form not described; also called sdAb 21; not shown: Fc part implied by anti-human Fc capture) VHH: QLQLVESGGGLVQPGGSLRLSCAASGLTLDGYAIAWFRQAPGKEREGLSCISGTDGSTHYLDSVKGRFTISRDNGKNTMALQMNSLQFGDTAIYYCAARRGSCSGSWTYWGQGTQITVSS
10.5
